TARGET OR SYSTEM: Survivin E63A mutant (human, UniProt O15392 1-142, E63A)
Sequence (O15392 whole entry E63A): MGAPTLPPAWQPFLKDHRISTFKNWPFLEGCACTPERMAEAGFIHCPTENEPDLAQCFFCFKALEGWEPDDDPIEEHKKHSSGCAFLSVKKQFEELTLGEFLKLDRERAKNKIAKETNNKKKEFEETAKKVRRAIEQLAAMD
PROTOCOL DETAILS: ITC
Where no end group is shown, it is not given here. [ ]: non-standard residue; d: D form. pT = C[C@@H](OP(=O)(O)O)[C@H](N)C(=O)O
RESULT TYPE: Kd

# input Query (binder): AR[pT]KQTARKSTGGKA (peptide, UniProt P68431 2-16, looked up) [H3(1–15)T3ph peptide] ; field requested: Kd
# output > 200 µM

Data origin, for the record: paper PMC3684423
